condition-parameters: cell viability/%
Where a SMILES comes first, the peptide text is derived from it. [ ]: non-standard residue; d: D form. The star is where a group is joined. NHCH2CH2OH = OCCN*; For = O=C*
measurement-type: viability (%)
Hi! Could you send only the number? It should be in %, unit omitted.

1) CC(C)C[C@@H](NC(=O)[C@H](C)NC(=O)CNC(=O)[C@@H](NC=O)C(C)C)C(=O)N[C@@H](C)C(=O)N[C@H](CC(C)C)C(=O)N[C@H](C(=O)N[C@H](CC(C)C)C(=O)N[C@@H](Cc1c[nH]c2ccccc12)C(=O)N[C@@H](C(=O)N[C@@H](Cc1c[nH]c2ccccc12)C(=O)N[C@H](CC(C)C)C(=O)N[C@@H](Cc1c[nH]c2ccccc12)C(=O)N[C@H](CC(C)C)C(=O)N[C@@H](Cc1c[nH]c2ccccc12)C(=O)NCCO)C(C)C)C(C)C [compound 2828] (For-VGA[dL]A[dL]V[dL]W[dV]W[dL]W[dL]W-NHCH2CH2OH); 2.8

Next up:
Which measured viability value corresponds to CC(C)C[C@@H](NC(=O)[C@H](C)NC(=O)[C@H](NC(=O)[C@H](C)NC(=O)CNC(=O)[C@@H](NC=O)C(C)C)[C@H](C)O)C(=O)N[C@H](C(=O)N[C@@H](C(=O)N[C@@H](Cc1c[nH]c2ccccc12)C(=O)N[C@@H](C(=O)N[C@@H](Cc1c[nH]c2ccccc12)C(=O)N[C@H](CC(C)C)C(=O)N[C@@H](Cc1c[nH]c2ccccc12)C(=O)N[C@@H](C(=O)N[C@@H](Cc1c[nH]c2ccccc12)C(=O)NCCO)C(C)C)[C@H](C)O)C(C)C)C(C)C [compound 10338] (For-VGA[dT]A[dL]V[dV]W[dT]W[dL]W[dV]W-NHCH2CH2OH) ?
100
